Assay: folding stability dG unfold from trypsin proteolysis; higher = more stable
Rule: folding stability dG unfold of 2 kcal/mol or more gives true; anything lower gives false.

{"recordSequence": "SAGGSAGGSAGGSKKKIKIYIENENGEKKTIEIEVEGDIDEIAKELAKKYNVKIVKIEPSAGGSAGGSAGGS [r4_412_TrROS_Hall]", "assignedLabel": "true"}
{"recordSequence": "SAGGKYKIVEITIKVEPGQSPEEIAAEIAKKLAPPGEKVKVKVEKKDGYLRIYIINEETGEVVEEFELSAGG [r13_724_TrROS_Hall]", "assignedLabel": "false"}
{"recordSequence": "SAGGSAGGSWGTISIRIEFNFMAFDPGLGQFSMFPMEVYISIPIEIPPPPPPPKPKYDNGKPKSAGGSAGGS [r12_140_TrROS]", "assignedLabel": "true"}
{"recordSequence": "SAGGMPVTVTLDLSDLTPEEIERLLTEAVEAHPDPAAVTVRVKTDDPALEAAVRAAAEALPAVAVTLESAGG [r13_718_JUSTAS]", "assignedLabel": "false"}
{"recordSequence": "SAGGPRVEPLPLRVTYEDGVPPREVTVPLLAVTALDPETGEPVTFVNPGSLEVLAALLPPSVVSFDFSAGGS [r16_522_TrMRF]", "assignedLabel": "false"}
{"recordSequence": "SAGGSAGGSAMPIKYLFPKDKSLEDILDEIIKKTGKPKSEIKNIKLEEIDDEEGFYVAYVESAGGSAGGSAG [r3_26_TrMRF]", "assignedLabel": "false"}

---

Assay: folding stability dG unfold from chymotrypsin proteolysis; higher = more stable
Each entry below carries its reported folding stability dG unfold.

{"recordSequence": "SAGGSAEEAEELARRLAAELQAETGLEVTVEVRYDEETDTVVIRMTVRDRATGEERTLELTLRLPDSAGGSA [r15_464_TrROS_Hall]", "folding stability dG unfold, kcal/mol": 3.72}
{"recordSequence": "SAGGSAGGSAGGMVITVPKENLKELIDALRKEGKARIVSVEEKDGLVTITVELEDEELESAGGSAGGSAGGS [r10_695_TrROS_Hall]", "folding stability dG unfold, kcal/mol": 2.28}
{"recordSequence": "SAGGSAGGSAGGMTLRIRVRNKDGKVLEIEVEVDEDKTPEEVARELAKKLNVEKVEIFPSAGGSAGGSAGGS [r10_400_TrROS_Hall]", "folding stability dG unfold, kcal/mol": 2.32}
{"recordSequence": "SAGGSDPVSVSTEGGNTYVTVGDTPVLRLSKGKPEPPVLVTLPNGEVIEMPRSEALARDPSTIEFTPGSAGG [r13_802_JUSTAS]", "folding stability dG unfold, kcal/mol": 0.368}
{"recordSequence": "SVFEMPIKLTLKRRDPDGKGRKVKVTIRIRFEMPPNLPPDDKNDPERRKMHQMMHSNMHERAESLADPLASA [r9_237_TrROS]", "folding stability dG unfold, kcal/mol": 1.6}

---

Each entry below carries its reported folding stability dG unfold.
Experiment: folding stability dG unfold (combined trypsin and chymotrypsin); higher = more stable
measurementType: folding stability dG unfold (kcal/mol)

{"recordSequence": "SAGGSAGGSAMKVALVERPDGSPFLLVFDPDRPGVALLRPLDTDEVEVLPSELLKNLKITASAGGSAGGSAG [r3_451_TrMRF]", "measurementType": "folding stability dG unfold", "comparisonOperator": "=", "measuredNumber": 0.344}
{"recordSequence": "SAGGMNSMRLTVEFPSPEQREEKLRQIVHKHGFTIKPKEVEPNPNGRMTHTIEINMPPKVRDAFKDLSAGGS [r8_357_TrROS]", "measurementType": "folding stability dG unfold", "comparisonOperator": "=", "measuredNumber": -0.659}
{"recordSequence": "SIINALREALKDGKPGQEIPIMMPPDGMGELMNWLQDYGFKPKKMEPMPMNNRPMYTHEFTIDPKNGKFRSA [r9_498_TrROS]", "measurementType": "folding stability dG unfold", "comparisonOperator": "=", "measuredNumber": 0.0967}
{"recordSequence": "SNTIMIMANVPPGPVRIKIEPKNGRRYEMPIPPGEPVMFHIPIPPGLPPGNKWKIEVENPDNGKEQEKDFSA [r9_275_TrROS]", "measurementType": "folding stability dG unfold", "comparisonOperator": "<", "measuredNumber": -1}
{"recordSequence": "SAGGSKKKKPEKPPVVLIKITVEETGKEITIPLEELRNMSAEELAKRIAEELRERYPGLKVRVEIVSAGGSA [r2_392_TrROS_Hall]", "measurementType": "folding stability dG unfold", "comparisonOperator": "=", "measuredNumber": 2.07}
{"recordSequence": "SAGGEKTYMVRIDIEYRTPGKPREIDLMVPIKSPEQAREQLDKIADFLAKEHPDNWRIKVEIYPMEDSAGGS [r16_475_TrROS]", "measurementType": "folding stability dG unfold", "comparisonOperator": "=", "measuredNumber": 2.16}
{"recordSequence": "MRRTLETDEIRRLEIELRPAPGRTAVLDAVVELRDGTPVPLPFPLRLESGRLDPATVERAEREAVEEALARS [r1_124_TrMRF]", "measurementType": "folding stability dG unfold", "comparisonOperator": "<", "measuredNumber": -1}
{"recordSequence": "SAGGSSFTGTVTPVKVDPVNPDLVTVATTLTWPDGTTVPLTRTIPRSVYDSLPENISISVTLSPPSSAGGSA [r2_128_JUSTAS]", "measurementType": "folding stability dG unfold", "comparisonOperator": "=", "measuredNumber": 0.942}
{"recordSequence": "SAGGSAGGELELELTVRLPNGLEVRIRARVKFDEETNEWTITEIEIEIRPLPPPPVLDKDGKLVSAGGSAGG [r6_506_TrROS_Hall]", "measurementType": "folding stability dG unfold", "comparisonOperator": "=", "measuredNumber": 2.93}
{"recordSequence": "SAGGSAGMPDPPLEGLKEALREALAANPGEEVTLTVPRADGRTLTVRGTKDGGIEITLPDGTRIALSAGGSA [r15_73_JUSTAS]", "measurementType": "folding stability dG unfold", "comparisonOperator": "=", "measuredNumber": 1.58}
{"recordSequence": "SAGGKPGEKPRIRIQVKVRYPGNGRKQSITIEIVPDAIEQGLSASELADEIARKMGMPVKIEEIEILSAGGS [r16_554_TrROS]", "measurementType": "folding stability dG unfold", "comparisonOperator": "=", "measuredNumber": 1.79}
{"recordSequence": "SAGGGFEEIIEKAIAKAKELFPDTGAVVPITETVYDPVKKKPIVIEVLVEFDKDGKIKKVEILKISELSAGG [r13_770_TrMRF]", "measurementType": "folding stability dG unfold", "comparisonOperator": "=", "measuredNumber": 2.09}
{"recordSequence": "SAGGSAGGEETLRVTEITDVEKPDNGPRIKFPIEHDGKKKPIDINVPPDDLKPGDTIPLEEILKSAGGSAGG [r6_585_TrROS]", "measurementType": "folding stability dG unfold", "comparisonOperator": "=", "measuredNumber": 0.222}
{"recordSequence": "SAGGSAGGSAGGSGSFDPENGTIEIRVPKTKKPVKIPFPEEEADEFAENLPPNLDRVHFSAGGSAGGSAGGS [r4_282_TrROS]", "measurementType": "folding stability dG unfold", "comparisonOperator": "<", "measuredNumber": -1}
{"recordSequence": "SAGGSAGGSAGGLKDALENGYVMIDFEIYNPPNGEPIGEITIMVKVPKPEPDEDGNWQLVSAGGSAGGSAGG [r7_959_TrROS]", "measurementType": "folding stability dG unfold", "comparisonOperator": "=", "measuredNumber": 1.26}
{"recordSequence": "SAGGSAGGSMTIVIPKKTLEKMKPETIKKLLELAKELNTTITMNENAITIPVGKGTEEALKALSAGGSAGGS [r12_945_TrMRF]", "measurementType": "folding stability dG unfold", "comparisonOperator": "=", "measuredNumber": 1.28}
{"recordSequence": "SAGGSAGGSAGGKPKTVKIIRDKKTNRLLIERDGKVYEFDVDNVEVREVTLEDLKEEELSAGGSAGGSAGGS [r10_512_TrROS_Hall]", "measurementType": "folding stability dG unfold", "comparisonOperator": "=", "measuredNumber": 0.88}
{"recordSequence": "SAGGSAGGSAGGMKVLVIFEDNKIPRVVSEEELKKIPLPFKIIPLGPDPEEAKKILEKSSAGGSAGGSAGGS [r10_419_TrMRF]", "measurementType": "folding stability dG unfold", "comparisonOperator": "=", "measuredNumber": 0.434}
{"recordSequence": "SPFIMIRIDIERKNGKEVEMMFPVPANNIKNNLRDHLGPGYKVKITDIEPIDPEQFPPGQMIKIRYRVKPSA [r9_803_TrROS]", "measurementType": "folding stability dG unfold", "comparisonOperator": "=", "measuredNumber": 1.79}
{"recordSequence": "SAGGSAGGSAGIKKQRNPDGQERETIEIRTKNQPIPITFPPDDNADDLANNFGLPADDIRSAGGSAGGSAGG [r11_1039_TrROS]", "measurementType": "folding stability dG unfold", "comparisonOperator": "=", "measuredNumber": 0.28}
{"recordSequence": "SAGGPAEFPEGPGVVVGYTYPPDGKPAKWAIPFPDATPEEARERLAKFAEALPIPGAKVVIDDIKPGPSAGG [r13_29_TrMRF]", "measurementType": "folding stability dG unfold", "comparisonOperator": "<", "measuredNumber": -1}
